Reported phosphorylation enrichment values are given for each entry in this list.
System: AncSZ;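 also: 11-residue human phosphosite peptides and single-mutation variants displayed on the E. coli surface, counted by deep sequencing, each peptide's frequency after selection divided by its frequency in the unselected input library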;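 also: frequency after pTyr selection over input frequency; kinase dosed for 20-30% of maximal phosphorylation in three min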
Assay: phosphorylation enrichment, bacterial display (enrichment ratio); higher = better substrate or ligand; peptides without Tyr show the background
endpoint_label: phosphorylation enrichment

| residue_string | endpoint_label | endpoint_value |
| --- | --- | --- |
| IRTDAYVPAMT [RPE65_Y89_R91P] | phosphorylation enrichment | 0.516 |
| RQLEIYRASRP [ERCC4_Y594] | phosphorylation enrichment | 0.663 |
| HHTDECEYDEL [TGM1_Y134_Y134C] | phosphorylation enrichment | 1.8 |
| CSTIHYNYMCN [TP53_Y234_T230S] | phosphorylation enrichment | 0.784 |
| CENNRYGMGAS [PDHA1_Y227_T231A] | phosphorylation enrichment | 0.655 |
| DHLASYLDKVR [KRT10_Y160_R156H] | phosphorylation enrichment | 0.585 |
| TNITEYCRDLI [RECQL_Y492_K487T] | phosphorylation enrichment | 1.01 |
| SKNFTYIWWLN [PSG4_Y271_YF] | phosphorylation enrichment | 1.18 |
| QTPVLYTMLDH [MPZ_Y220_A221T] | phosphorylation enrichment | 0.896 |
| IVRSPYEDLED [VHL_Y185_L184P] | phosphorylation enrichment | 1.31 |
| NYAKMYCNPDA [KNL1_Y489] | phosphorylation enrichment | 1.12 |
| ETAENYLGYTA [HSPA9_Y181_H184Y] | phosphorylation enrichment | 1.17 |
| SLALFYRKVFH [RBL1_Y792_YF] | phosphorylation enrichment | 1.36 |
| GEFHVYRHLRR [PRKRIP1_Y82] | phosphorylation enrichment | 1.3 |
| SHISGYATLRR [RAPH1_Y1226] | phosphorylation enrichment | 0.941 |
| ASFGPNTRVQS [FOXL2_Y258_Y258N_YF] | phosphorylation enrichment | 0.567 |
| FKDGQYWIRGQ [ACSF3_Y466_R471Q] | phosphorylation enrichment | 0.831 |
| EIVHRYVELLD [AP1S3_Y87] | phosphorylation enrichment | 0.892 |
| FMMMRYSQNIR [SDAD1_Y656_V660I] | phosphorylation enrichment | 1.17 |
| EELLHYAIVTP [POC5_Y37] | phosphorylation enrichment | 1.48 |
| SWSTSYSGFRF [NKAPL_Y91_YF] | phosphorylation enrichment | 1.17 |
| ADFPDYKFRPR [SOX11_Y116_YF] | phosphorylation enrichment | 1.07 |
| PEEKVYLSRGD [CRACR2A_Y141_H136P] | phosphorylation enrichment | 1.44 |
| MEKEKYVSYIS [JMJD1C_Y596] | phosphorylation enrichment | 0.795 |
| WAMPAYNRSKL [WWOX_Y293_L291P] | phosphorylation enrichment | 0.457 |
| RRIHSHRGHLW [VHL_Y112_Y112H] | phosphorylation enrichment | 0.918 |
| GGEAIYAAPFA [Abl_opt_1995] | phosphorylation enrichment | 4 |
| EKEKEYMLPLD [DNM2_Y563_K562E] | phosphorylation enrichment | 1.1 |
| NLPGGYSGSVK [MCPH1_Y606] | phosphorylation enrichment | 0.595 |

---

Molecular target: c-Src SH2;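 also: peptide library displayed on the E. coli surface as eCPX fusions, selected cells deep-sequenced, score is each peptide's frequency after selection divided by its frequency in the input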
Assay: SH2 binding enrichment of the phosphorylated peptide, bacterial display (enrichment ratio); higher = better substrate or ligand; peptides without Tyr show the background
endpoint_label: SH2 binding enrichment

| residue_string | endpoint_label | endpoint_value |
| --- | --- | --- |
| IYGASYVPFAA [RBM47_Y541] | SH2 binding enrichment | 0.553 |
| NSNAAYEQSHF [LRIF1_Y714] | SH2 binding enrichment | 0.769 |
| GAVDTYCRHNY [HLA-DRB1_Y107_A102G] | SH2 binding enrichment | 0.518 |
| QQLQGYIPSNY [FRK_Y99] | SH2 binding enrichment | 0.333 |
| RSDSSYRMSAT [NHS_Y1532] | SH2 binding enrichment | 0.476 |
| EIVHRYVELLD [AP1S3_Y87] | SH2 binding enrichment | 21.6 |
| FADIAYNFRDG [PAH_Y166_H170D_YF] | SH2 binding enrichment | 0.424 |
| SIKDKYVTALY [KCNH2_Y611] | SH2 binding enrichment | 0.437 |
| NRKGKYFNVER [ANAPC4_Y469] | SH2 binding enrichment | 0.299 |
| LKLIQYHLTQQ [AKAP4_Y554] | SH2 binding enrichment | 0.762 |
| FLTQHHDAKPQ [ANG_Y38_Y38H] | SH2 binding enrichment | 0.604 |
| ASFGPNTRVQS [FOXL2_Y258_Y258N_YF] | SH2 binding enrichment | 0.542 |
| MVSLFYGTAIF [OR10C1_Y251_L255I] | SH2 binding enrichment | 0.46 |
| LENSTYQFICV [CRB1_Y760_R764C_YF] | SH2 binding enrichment | 0.457 |
| DLDLTSIFPNI [PTEN_Y27_Y27S_YF] | SH2 binding enrichment | 0.48 |
| EFRFIYMAVQH [PTPN11_Y515_Q510E_YF] | SH2 binding enrichment | 0.596 |
| GRDQPYSGTGD [TYRO3_Y828_A831T] | SH2 binding enrichment | 0.518 |
| IPGGIYNADLN [CST4_Y35_D36N] | SH2 binding enrichment | 0.635 |
| VTRKEYFIFLE [CAMKV_Y95] | SH2 binding enrichment | 1.03 |
| LYRYGYANTSE [SI_Y1233_C1229Y] | SH2 binding enrichment | 2.44 |
| ISKKRYAGLLF [POLD1_Y809] | SH2 binding enrichment | 0.449 |
| KQELVYTNKKL [OPTN_Y356] | SH2 binding enrichment | 0.4 |
| VKYLGYPPPEI [KDR_Y357_A352V] | SH2 binding enrichment | 0.495 |
| ADFPDYKFRPR [SOX11_Y116_YF] | SH2 binding enrichment | 0.614 |
| GLDGSYLLRFS [SH2D1A_Y29_D33Y_YF] | SH2 binding enrichment | 0.944 |
| KDGNGYISVAE [CALM3_Y100_A103V] | SH2 binding enrichment | 2.5 |
| ELQDDYEDTME [SLC4A1_Y8_M11T] | SH2 binding enrichment | 0.582 |
| PTQLPYDHKWE [KIT_Y578] | SH2 binding enrichment | 0.524 |
| FTFTSYFMHWV [IGHV1-46_Y51_YF] | SH2 binding enrichment | 1.03 |
| MKALGYFAVVK [OPA1_Y498_T503K] | SH2 binding enrichment | 0.595 |
| SVTCTYSLALN [TP53_Y126_P128L] | SH2 binding enrichment | 0.503 |
| RLLVVYPWTQK [HBG1_Y36_R41K] | SH2 binding enrichment | 1.76 |
| DPLASYLDKVR [KRT10_Y160_R156P] | SH2 binding enrichment | 0.545 |
| EKKKFYDAKIE [CASP5_Y104_T106A_YF] | SH2 binding enrichment | 0.453 |
| GDAMLYYPSVS [GPR143_Y177_A173D] | SH2 binding enrichment | 0.773 |
| NPIGLYSAEIL [LDB3_Y202_T206I] | SH2 binding enrichment | 0.415 |
| FMCKVYSDRQP [FGFR1_Y280_P283R] | SH2 binding enrichment | 0.527 |
| EREFKYDAHNF [OAT_Y50_G51D_YF] | SH2 binding enrichment | 0.543 |
| LDMSQYFRLFN [CPT2_Y217] | SH2 binding enrichment | 0.669 |
| RQNQEYEILMD [KRT39_Y379_L383M] | SH2 binding enrichment | 0.835 |
| SEDSEYFRAFE [CASQ2_Y178_K180R_YF] | SH2 binding enrichment | 0.439 |
| CITIHYNYMCN [TP53_Y234_T230I] | SH2 binding enrichment | 1.57 |
| IFGASYVPFAA [RBM47_Y541_YF] | SH2 binding enrichment | 0.676 |
| KLLPEYPGILS [DHFR2_Y163_V166I] | SH2 binding enrichment | 0.528 |
| WANPEYTGGFK | SH2 binding enrichment | 0.656 |
| MSSAGYRAAEG [COL6A3_Y543_T538M] | SH2 binding enrichment | 0.396 |
| TIEDSYRKQVV [KRAS_Y40] | SH2 binding enrichment | 0.428 |
| SVNCTYSPALN [TP53_Y126_T123N] | SH2 binding enrichment | 0.381 |
| TISPFYCQSLF [CRYAA_Y48_R49C_YF] | SH2 binding enrichment | 0.632 |
| SWSTSYSGFRF [NKAPL_Y91_YF] | SH2 binding enrichment | 0.774 |
| NLPGGYSGSVK [MCPH1_Y606] | SH2 binding enrichment | 0.448 |
| TTEHIYGDNFF [UBA7_Y524] | SH2 binding enrichment | 0.478 |
| PQGVRYTYTID [DCX_Y103_I104T] | SH2 binding enrichment | 1.55 |
| MSLPGYKLVTG [GJA1_Y286_P283L] | SH2 binding enrichment | 0.489 |
| TPRNTYKMTSV [MKI67_Y849_L854V] | SH2 binding enrichment | 0.452 |
| IMFTSYFLTIL [TAS2R16_Y239_V235M] | SH2 binding enrichment | 1.03 |
| ILGRTHYVNHE [NEDD4_Y627_Y627H] | SH2 binding enrichment | 0.767 |
